Test system: HCT-116 colon
Test: NCI tumour cell line growth inhibition, 48 h; in the data active = GI50 below about 0.43 µM; inactive = the rest
Would you mind answering with one of these outcomes? true (1) = active, false (0) = inactive

# count of solved cases: 3
| compound | label_class |
| --- | --- |
| CNc1cc2nc3cc(NC)c(C)cc3cc2cc1C | true (1) |
| CCC(C)[C@H](NC(=O)NC(=O)NC(=O)CI)C(=O)OC (some centres undefined) | false (0) |
| C=C1CCC2C3(C)COC(c4c(OC)cccc4OC)OC3CCC2(C)C1C/C=C1/C(=O)OCC1O (centres undefined) | false (0) |

# evaluate next
stdin: I would be grateful if you could indicate the recorded call for C/C(=N\NC(=S)N1CCN(C2CCCCCC2)CC1)c1ccccn1 .
stdout: true (1)

* * *

Tested on: SK-OV-3 ovarian
Assay: NCI tumour cell line growth inhibition, 48 h
Documented TGI across a set of compounds

| compound | target_system | TGI |
| --- | --- | --- |
| COC(CC1(/C=C/O[Si](C(C)C)(C(C)C)C(C)C)C(=O)N(COCC[Si](C)(C)C)c2ccccc21)OC (stereo not given) | SK-OV-3 ovarian | 51.2 µM |
| COC1(OC)N=C(N)C2(C#N)C3(C(=O)N(C(C)C)N=C3C)C12C#N (stereo not given) | SK-OV-3 ovarian | > 100 µM |
| COC(=O)c1ccc(NCc2c(O)ccc(O)c2Br)cc1Cl | SK-OV-3 ovarian | > 100 µM |
| O=c1oc2ccccc2c(O)c1/C=N/C(=S)NCc1ccccc1 | SK-OV-3 ovarian | > 100 µM |
| NNC1=N/C(=C\c2ccco2)C(=O)N1 | SK-OV-3 ovarian | > 100 µM |
| O=C(c1ccco1)c1c(C(F)(F)F)nc2ccc(C(F)(F)F)cc2[n+]1[O-] | SK-OV-3 ovarian | > 100 µM |

compound COc1ccc(N2C(=O)c3c(c4[nH]c5ccc(OC)cc5c4c4ccc(C(C)(C)C)cc34)C2=O)cc1 , TGI observed: > 100 µM

compound N#Cc1cc([N+](=O)[O-])ccc1NC(=O)C(F)(F)F , TGI observed: > 100 µM

compound CCOP(=O)(Nc1ccccc1P(=O)(OCC)OCC)OCC , TGI observed: > 100 µM

compound Cc1[nH]c(C(=O)Nc2ccccc2OC2CCNCC2)c(Cl)c1Cl , TGI observed: 16.1 µM

* * *

Tested on: DU-145 prostate
Assay: NCI tumour cell line growth inhibition, 48 h; in the data active = GI50 below about 0.43 µM; inactive = the rest
Would you mind answering with one of these outcomes? active, inactive

stdin: I would be grateful if you could indicate the recorded call for Cc1[nH]c(C(=O)Nc2ccccc2OC2CCNCC2)c(Cl)c1Cl .
stdout: inactive

stdin: I would be grateful if you could indicate the recorded call for O=C(NNc1ccc(F)cc1)C1CCC(CNS(=O)(=O)c2ccc(Cl)c(Cl)c2)CC1 (centres undefined) .
stdout: inactive

stdin: I would be grateful if you could indicate the recorded call for CC[C@@H](C(=O)[C@H](C)[C@H](O)[C@@H](C)[C@H]1O[C@H]([C@@H](CC)C(=O)O)CC[C@H]1C)C1O[C@]2(C=C[C@@H](O)[C@]3(CC[C@@](C)([C@H]4CC[C@](O)(CC)[C@H](C)O4)O3)O2)[C@H](C)C[C@@H]1C (some centres undefined) .
stdout: inactive

stdin: I would be grateful if you could indicate the recorded call for C=C1CC[C@@H]2[C@](C)(COC(C)=O)[C@H](OC(C)=O)CC[C@@]2(C)[C@@H]1CC(Nc1ccc(S(=O)(=O)Nc2cc(C)on2)cc1)C1=CCOC1=O (some centres undefined) .
stdout: inactive

stdin: I would be grateful if you could indicate the recorded call for CCN(CC)CCOc1ccc(/C=C2\C[C@H]3[C@H]4CC=C5C[C@@H](O)CC[C@]5(C)[C@H]4CC[C@]3(C)[C@H]2O)cc1OC .
stdout: inactive

stdin: I would be grateful if you could indicate the recorded call for NC1CCC(Nc2nc(NCc3cc(Cl)ccc3O)c3ncn(C4CCCC4)c3n2)CC1 (centres undefined) .
stdout: active

stdin: I would be grateful if you could indicate the recorded call for Nc1nc2c(nnn2C2OC(CO)C(O)C2O)c(=O)[nH]1 (centres undefined) .
stdout: active

stdin: I would be grateful if you could indicate the recorded call for O=C(c1ccco1)c1c(C(F)(F)F)nc2ccc(C(F)(F)F)cc2[n+]1[O-] .
stdout: inactive

stdin: I would be grateful if you could indicate the recorded call for Fc1ccc(-c2nn3c(-c4cc(C(F)(F)F)cc(C(F)(F)F)c4)nnc3s2)cc1 .
stdout: inactive

The origin of these recorded values is PubChem BioAssay (NCI).
